System: SN12C
Experiment: NCI tumour cell line growth inhibition, 48 h
Active and inactive are the calls of the source. No stated cut-off is given here; in the data, active = GI50 up to about 1.1 µM and inactive = higher.
Classes used: 1 for active, 0 for inactive

>  <compound>
CN(C)CCCNC(=O)N/N=C/c1ccc([N+](=O)[O-])cc1

>  <label_class>
0

$$$$
>  <compound>
COc1ccc(-c2nc(O)c3ccccc3n2)cc1OC

>  <label_class>
0

$$$$
>  <compound>
COc1ccc(/C=N/n2c(C)n[nH]c2=O)cc1

>  <label_class>
0

$$$$
>  <compound>
COc1cc2c(cc1OC)C(CC(=O)NN=C(C)C)NCC2 (stereo not drawn)

>  <label_class>
0

$$$$
>  <compound>
COc1cc2c(c(OC)c1OC)-c1ccc(SC)c(=O)cc1[C@@H](NCc1cccc([N+](=O)[O-])c1)CC2

>  <label_class>
1

$$$$
>  <compound>
O=C1OC2C=CC1C1(CCOC1=O)C2 (stereo not drawn)

>  <label_class>
0

$$$$
>  <compound>
O=C1/C(=C\c2ccccc2)c2ccccc2N1/N=C\c1ccccc1

>  <label_class>
0

$$$$
>  <compound>
C=CC[C@]1(C2=NC(C)(C)CO2)c2ccccc2-c2ccccc2[C@H]1C(C)=O

>  <label_class>
0

$$$$
>  <compound>
Cc1c(CCCl)c(=O)n2c([nH]c3ccccc32)c1C#N

>  <label_class>
0

$$$$
>  <compound>
CC1(C)COC(C23C4C5C2C2C3C4C52I)=N1 (stereo not drawn)

>  <label_class>
0

$$$$
>  <compound>
CCOn1cc(C[C@@]2(O)C(=O)OC3[C@@H](O)CO[C@@]32O)c2ccccc21 (stereo partly drawn)

>  <label_class>
0

$$$$
>  <compound>
C[C@H](O)C1CC(Cn2nnc3c(N)ncnc32)C1(C)C (stereo partly drawn)

>  <label_class>
0

$$$$
>  <compound>
CC(C)(C)C1CCC(CI)(N=[N+]=[N-])CC1 (stereo not drawn)

>  <label_class>
0

$$$$
>  <compound>
COc1cc(/C=N/n2c(Cc3ccc(Cl)cc3)n[nH]c2=O)cc(OC)c1OC

>  <label_class>
0

$$$$
>  <compound>
COc1ccc(NC(=O)CSC(=O)c2ccccc2)c(SCCSSCCSc2cc(OC)ccc2NC(=O)CSC(=O)c2ccccc2)c1

>  <label_class>
0

$$$$
>  <compound>
O=C(NC1CCC(=O)N1C(=O)OCc1ccccc1)OCc1ccccc1 (stereo not drawn)

>  <label_class>
0

$$$$
>  <compound>
CCOc1ccccc1NC(=O)C(=O)C(C(=O)c1ccc2ccccc2c1)C1OC(=O)c2ccccc21 (stereo not drawn)

>  <label_class>
0

$$$$
>  <compound>
CCOC(=O)C1C(=O)c2cccc(OC)c2C2COC(=O)N12 (stereo not drawn)

>  <label_class>
0

$$$$

====

GI50 reference
System: UACC-257
Assay: NCI tumour cell line growth inhibition, 48 h
Activity calls are given as the source filed them. No stated cut-off is given here; in the data, active = GI50 up to about 1.1 µM and inactive = higher.
property_label: GI50

>  <molecule>
Cc1ccc(S(=O)(=O)N/N=C2/C3CC4CCC2C4C3)cc1 (configuration not stated)

>  <result>
> 100 µM (inactive)

$$$$
>  <molecule>
COc1cc(/C=C(\C#N)C(=O)c2ccccc2)ccc1O

>  <result>
> 100 µM (inactive)

$$$$
>  <molecule>
COc1ccccc1NC(=O)C1=C(C)NC(C)=C(C(=O)Nc2ccccc2OC)C1c1ccc(N(C)C)cc1

>  <result>
27.9 µM (inactive)

$$$$
>  <molecule>
C[C@]12CCC(O)CC1=CC[C@@H]1[C@@H]2CC[C@]2(C)C(O)[C@H](n3ccnc3)C[C@@H]12 (some centres not stated)

>  <result>
28.2 µM (inactive)

$$$$
>  <molecule>
O=C1NC(=S)NC(=O)C1=CC1CC1

>  <result>
> 100 µM (inactive)

$$$$
>  <molecule>
CC(NC(=O)C(CC(=O)OCc1ccccc1)NC(=O)OCc1ccccc1)c1ccccc1 (configuration not stated)

>  <result>
> 10 µM (inactive)

$$$$
>  <molecule>
CC1=CCN(c2ccccn2)OC1c1ccccc1 (configuration not stated)

>  <result>
> 100 µM (inactive)

$$$$
>  <molecule>
CSc1nc2c3ccccc3ccn2c1C(=O)N/N=C/c1ccccc1

>  <result>
> 100 µM (inactive)

$$$$
>  <molecule>
c1cc2c3c(c1)c1cc4c(cc1c[n+]3CC2)OCO4 [ANHYDROLYCORINIUM CHLORIDE]

>  <result>
5.28 µM (inactive)

$$$$
>  <molecule>
COc1ccc(OC)c(CSc2ccc(OC)c(OC)c2)c1

>  <result>
> 83.4 µM (inactive)

$$$$
>  <molecule>
OC(C#Cc1ccccc1)(c1ccccc1)c1ccccc1

>  <result>
24.5 µM (inactive)

$$$$
>  <molecule>
CCCCCCCCCCCCCCCCCCOCC(CO[PH](=O)O)OCCCCCCCCCCCCCCCCCC (configuration not stated)

>  <result>
> 50 µM (inactive)

$$$$

Values from ChEMBL document CHEMBL1201862
